- experimentalSystem: Serotonin 2 (5-HT2) receptor (Rattus norvegicus, UniProt P30994+P08909+P14842)
- assayProtocol: Displacement of [3H]ketanserin from 5-hydroxytryptamine 2 receptor in rat cortical membranes
- Assay type: cell membranes, Membrane
Exercise: state measured IC50 for each of the molecules provided.
API: value field is a number in nM; no unit string.

Qu. State the recorded IC50 for this entry: O=C(O)/C=C\C(=O)O.O=C(O)/C=C\C(=O)O.O=c1[nH]c2ccccc2c(=O)n1CCN1CCN(C2CC(c3ccc(F)cc3)c3cc(Cl)ccc32)CC1 (stereo not drawn)
Ans. 3.8

Qu. Same again, this time with O=C(O)/C=C\C(=O)O.O=C(O)/C=C\C(=O)O.O=C1NCCCN1CCN1CCN(C2CC(c3ccc(F)cc3)c3cc(F)ccc32)CC1 (single isomer, unassigned; (+))
Ans. 1.1

Qu. Same again, this time with O=C(O)/C=C\C(=O)O.O=C(O)/C=C\C(=O)O.O=C1N(CCN2CCN(C3CC(c4ccc(F)cc4)c4cc(Cl)ccc43)CC2)CCN1c1ccccc1 (stereo not drawn)
Ans. 44

====

Exercise: state measured IC50 for each of the molecules provided.
- experimentalSystem: Serotonin 2 (5-HT2) receptor (Rattus norvegicus, UniProt P30994+P08909+P14842)
- assayProtocol: Displacement of [3H]ketanserin from 5-hydroxytryptamine 2 receptor in rat cortical membranes
- Assay type: cell membranes, Membrane
Put your answer as a value accompanied by its unit after it.

Qu. Test system Serotonin 2 (5-HT2) receptor (Rattus norvegicus, UniProt P30994+P08909+P14842); read-out IC50; what value for Cl.Cl.Fc1ccc(C2CC(N3CCN(CCN4CCCNC4=S)CC3)c3ccc(Cl)cc32)cc1 (stereo in doubt; (+)-39) ?
Ans. 21 nM

Qu. Same again, this time with Cl.Cl.OCCN1CCN(C2CC(c3ccc(F)cc3)c3cc(Cl)ccc32)CC1 (stereo in doubt; 10)
Ans. 25 nM

Qu. Same again, this time with Cl.Cl.OCCN1CCN(C2CC(c3ccc(F)cc3)c3cc(Cl)ccc32)CC1 (single isomer, unassigned; (+))
Ans. 230 nM

Qu. Same again, this time with CC(C)N1CCN(CCN2CCN(C3CC(c4ccc(F)cc4)c4cc(Cl)ccc43)CC2)C1=O.O=C(O)/C=C\C(=O)O.O=C(O)/C=C\C(=O)O (stereo in doubt; (+)-20)
Ans. 75 nM

====

- experimentalSystem: Adrenergic receptor alpha-1 (Rattus norvegicus, UniProt P15823+P23944+P43140)
- assayProtocol: Displacement of [3H]prazosin from alpha-1 adrenoceptors in whole rat brain membranes
- Format: cell membranes
Exercise: state measured IC50 for each of the molecules provided.
API: value field is a number in nM; no unit string.

Qu. State the recorded IC50 for this entry: OCCN1CCN(C2CC(c3ccc(F)cc3)c3c(Cl)cccc32)CC1 (stereo not given)
Ans. 30

Qu. Same again, this time with CC(C)N1CCN(CCN2CCN(C3CC(c4ccccc4)c4cc(Cl)ccc43)CC2)C1=O.O=C(O)/C=C\C(=O)O.O=C(O)/C=C\C(=O)O (stereo not given)
Ans. 510

Qu. Same again, this time with O=C(O)/C=C\C(=O)O.O=C(O)/C=C\C(=O)O.Oc1nc2ccccc2n1CCN1CCN(C2CC(c3ccc(F)cc3)c3cc(Cl)ccc32)CC1 (stereo not given)
Ans. 66

Qu. Same again, this time with OCCN1CCN(C2CC(c3ccc(F)cc3)c3ccc(Cl)cc32)CC1 (stereo not given)
Ans. 26

Qu. Same again, this time with O=C(O)/C=C\C(=O)O.O=C(O)/C=C\C(=O)O.O=C1N(CCO)CCN1CCN1CCN(C2CC(c3ccc(F)cc3)c3cc(Cl)ccc32)CC1 (stereo not given)
Ans. 710

Qu. Same again, this time with Cc1ccc(C2CC(N3CCN(CCN4CCN(C(C)C)C4=O)CC3)c3ccc(Cl)cc32)cc1.O=C(O)/C=C\C(=O)O (stereo not given)
Ans. 60

Qu. Same again, this time with Cl.Cl.OCCN1CCN(C2CC(c3ccc(F)cc3)c3cc(F)ccc32)CC1 (stereo in doubt; (-)-13)
Ans. 1100

Qu. Same again, this time with CC(C)N1CCN(CCN2CCN(C3CC(c4ccc(F)cc4)c4cc(Br)ccc43)CC2)C1=O.O=C(O)/C=C\C(=O)O.O=C(O)/C=C\C(=O)O (stereo not given)
Ans. 270

Qu. Same again, this time with CSc1ccc2c(c1)C(c1ccc(F)cc1)CC2N1CCN(CCN2CCN(C(C)C)C2=O)CC1 (stereo not given)
Ans. 250

Qu. Same again, this time with CC(C)N1CCN(CCN2CCN(C3CC(c4ccc(F)cc4)c4cc(Cl)ccc43)CC2)C1=O.O=C(O)/C=C\C(=O)O.O=C(O)/C=C\C(=O)O (single isomer, unassigned; (-))
Ans. 210

Qu. Same again, this time with O=C1NCCN1CCN1CCN(C2CC(c3ccc(F)cc3)c3cc(Cl)ccc32)CC1 (stereo not given)
Ans. 200

Qu. Same again, this time with Cl.Cl.OCCN1CCN(C2CC(c3ccc(F)cc3)c3cc(Cl)ccc32)CC1 (single isomer, unassigned; (+))
Ans. 2500

Qu. Same again, this time with Cl.Cl.OCCN1CCN(C2CC(c3ccc(F)cc3)c3cc(F)ccc32)CC1 (single isomer, unassigned; (+))
Ans. 72

Qu. Same again, this time with Fc1ccc(C2CC(N3CCN(CCN4CCN=C4S)CC3)c3ccc(F)cc32)cc1.O=C(O)/C=C\C(=O)O.O=C(O)/C=C\C(=O)O (stereo not given)
Ans. 110

Qu. Same again, this time with CCN1CCN(CCN2CCN(C3CC(c4ccc(F)cc4)c4cc(Cl)ccc43)CC2)C1=O.O=C(O)/C=C\C(=O)O.O=C(O)/C=C\C(=O)O (stereo not given)
Ans. 240

====

- experimentalSystem: Serotonin 2 (5-HT2) receptor (Rattus norvegicus, UniProt P30994+P08909+P14842)
- assayProtocol: Displacement of [3H]ketanserin from 5-hydroxytryptamine 2 receptor in rat cortical membranes
- Assay type: cell membranes, Membrane
Exercise: state measured log10(IC50) for each of the molecules provided.
Response schema: value (number) is log10 of IC50 in units of nM.

Qu. State the recorded log10(IC50) for this entry: Fc1ccc(C2CC(N3CCN(CCN4CCCN=C4S)CC3)c3ccc(Cl)cc32)cc1.O=C(O)/C=C\C(=O)O.O=C(O)/C=C\C(=O)O (configuration not stated)
Ans. 0.18

Qu. Same again, this time with CC(C)N1CCN(CCN2CCN(C3CC(c4ccccc4F)c4cc(Cl)ccc43)CC2)C1=O.O=C(O)/C=C\C(=O)O.O=C(O)/C=C\C(=O)O (configuration not stated)
Ans. 0.54

Qu. Same again, this time with O=C(O)/C=C\C(=O)O.O=C(O)/C=C\C(=O)O.OCCN1CCN(C2CC(c3ccc(F)cc3)c3cc(C(F)(F)F)ccc32)CC1 (configuration not stated)
Ans. 0.95

Qu. Same again, this time with O=C(O)/C=C\C(=O)O.O=C(O)/C=C\C(=O)O.OCCN1CCN(C2CC(c3ccc(F)cc3)c3cccc(Cl)c32)CC1 (configuration not stated)
Ans. 1.18

Qu. Same again, this time with Cc1ccc(C2CC(N3CCN(CCN4CCN(C(C)C)C4=O)CC3)c3ccc(Cl)cc32)cc1.O=C(O)/C=C\C(=O)O (configuration not stated)
Ans. 1.04

Qu. Same again, this time with Cl.Cl.Fc1ccc(C2CC(N3CCN(CCN4CCCNC4=S)CC3)c3ccc(Cl)cc32)cc1 (stereo in doubt; (-)-39)
Ans. -0.12

Qu. Same again, this time with Cl.Cl.O=C1OCCN1CCN1CCN(C2CC(c3ccc(F)cc3)c3cc(Cl)ccc32)CC1 (configuration not stated)
Ans. 1.36

====

Exercise: state measured IC50 for each of the molecules provided.
- experimentalSystem: Adrenergic receptor alpha-1 (Rattus norvegicus, UniProt P15823+P23944+P43140)
- assayProtocol: Displacement of [3H]prazosin from alpha-1 adrenoceptors in whole rat brain membranes
- Type: cell membranes
API: value field is a number in nM; no unit string.

Qu. State the recorded IC50 for this entry: CC(C)N1CCN(CCN2CCN(C3CC(c4ccccc4F)c4cc(Cl)ccc43)CC2)C1=O.O=C(O)/C=C\C(=O)O.O=C(O)/C=C\C(=O)O (configuration not stated)
Ans. 670

Qu. Same again, this time with Cl.Cl.Fc1ccc(C2CC(N3CCN(CCN4CCCNC4=S)CC3)c3ccc(F)cc32)cc1 (single isomer, unassigned; (+))
Ans. 43

Qu. Same again, this time with O=C(O)/C=C\C(=O)O.O=C(O)/C=C\C(=O)O.O=C1NCCCN1CCN1CCN(C2CC(c3ccc(F)cc3)c3cc(F)ccc32)CC1 (single isomer, unassigned; (+))
Ans. 41

Qu. Same again, this time with O=C(O)/C=C\C(=O)O.O=C(O)/C=C\C(=O)O.O=C1N(CCN2CCN(C3CC(c4ccc(F)cc4)c4cc(Cl)ccc43)CC2)CCN1c1ccccc1 (configuration not stated)
Ans. 310

Qu. Same again, this time with O=C1NCCN1CCN1CCN([C@@H]2C[C@@H](c3ccc(F)cc3)c3ccccc32)CC1
Ans. 2.6

Qu. Same again, this time with Cl.Cl.O=C1OCCN1CCN1CCN(C2CC(c3ccc(F)cc3)c3cc(Cl)ccc32)CC1 (configuration not stated)
Ans. 140

Qu. Same again, this time with Fc1ccc(C2CC(N3CCN(CCN4CCNC4=S)CC3)c3ccc(Cl)cc32)cc1.O=C(O)/C=C\C(=O)O (configuration not stated)
Ans. 52
